experimental-details: total protein half-life in vivo (active degradation + dilution); higher = more stable protein
protocol-conditions: E. coli NCM3722 delta-smpB; growth: N-lim chemostat; doubling time 6 h

{"chain": "MLKLTDITWLYHHLPMRFSLTVERGEQVAILGPSGAGKSTLLNLIAGFLTPASGSLTIDGVDHTTMPPSRRPVSMLFQENNLFSHLTVAQNIGLGLNPGLKLNAVQQGKMHAIARQMGIDNLMARLPGELSGGQRQRVALARCLVREQPILLLDEPFSALDPALRQEMLTLVSTSCQQQKMTLLMVSHSVEDAARIATRSVVVADGRIAWQGMTNELLSGKASASALLGITG", "total protein half-life in vivo (h)": 5.31}
{"chain": "MDLRRFITLKTVVEEGSFLRASQKLCCTQSTVTFHIQQLEQEFSVQLFEKIGRRMCLTREGKKLLPHIYELTRVMDTLREAAKKESDPDGELRVVSGETLLSYRMPQVLQRFRQRAPKVRLSLQSLNCYVIRDALLNDEADVGVFYRVGNDDALNRRELGEQSLVLVASPQIADVDFTEPGRHNACSFIINEPQCVFRQIFESTLRQRRITVENTIELISIESIKRCVAANIGVSYLPRFAVAKELECGELIELPFGEQSQTITAMCAHHAGKAVSPAMHTFIQCVEESFVAG", "total protein half-life in vivo (h)": 3.41}
{"chain": "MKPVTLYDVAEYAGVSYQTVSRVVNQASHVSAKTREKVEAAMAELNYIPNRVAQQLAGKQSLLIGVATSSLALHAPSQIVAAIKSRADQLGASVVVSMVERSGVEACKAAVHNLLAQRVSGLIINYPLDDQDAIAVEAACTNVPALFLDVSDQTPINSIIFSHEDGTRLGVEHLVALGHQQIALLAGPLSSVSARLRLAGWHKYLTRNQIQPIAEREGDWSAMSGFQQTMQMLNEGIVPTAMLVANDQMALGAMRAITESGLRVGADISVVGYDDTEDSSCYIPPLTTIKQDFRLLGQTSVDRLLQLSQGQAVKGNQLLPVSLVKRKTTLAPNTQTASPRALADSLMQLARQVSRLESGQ", "total protein half-life in vivo (h)": 4.13}

###

Recorded total protein half-life in vivo by entry
experimental-details: total protein half-life in vivo (active degradation + dilution); higher = more stable protein
protocol-conditions: wild type E. coli NCM3722; growth: C-lim chemostat; doubling time 12 h

{"chain": "MPRANEIKKGMVLNYNGKLLLVKDIDIQSPTARGAATLYKMRFSDVRTGLKVEERFKGDDIVDTVTLTRRYVDFSYVDGNEYVFMDKEDYTPYTFTKDQIEEELLFMPEGGMPDMQVLTWDGQLLALELPQTVDLEIVETAPGIKGASASARNKPATLSTGLVIQVPEYLSPGEKIRIHIEERRYMGRAD [P0A6N8]", "total protein half-life in vivo (h)": 11.1}
{"chain": "MFDSLAKAGKYLGQAAKLMIGMPDYDNYVEHMRVNHPDQTPMTYEEFFRERQDARYGGKGGARCC [P0AAS9]", "total protein half-life in vivo (h)": 1.47}
{"chain": "MLIFEGKEIETDTEGYLKESSQWSEPLAVVIAENEGISLSPEHWEVVRFVRDFYLEFNTSPAIRMLVKAMANKFGEEKGNSRYLYRLFPKGPAKQATKIAGLPKPVKCI [P0AB18]", "total protein half-life in vivo (h)": 12.8}
